The reported measurements were obtained from ChEMBL document CHEMBL4177694.

Catalogue of compounds with associated Emax
biological target: Muscarinic acetylcholine receptor M1 (Homo sapiens) (UniProt P11229); assay: Positive allosteric modulation of human wild type M1 receptor assessed as increase in acetylcholine-induced calcium flux by FLIPR assay relative to acetylcholine; assay type: functional

compound: O=[N+]([O-])c1ccc2c(c1)C(c1ccccc1)=NCC(=S)N2
unitText: %
Emax: 40
--
compound: CC(C)C1C(=O)N(c2ccccc2)c2cc(Cl)ccc2NC1=S (stereo unspecified)
unitText: %
Emax: 93
--
compound: CC(C)[C@@H]1N=C(c2ccccc2F)c2cc(Cl)ccc2NC1=S
unitText: %
Emax: 78
--
compound: CC(C)[C@@H]1N=C(C2CCCCC2)c2cc(Cl)ccc2NC1=S
unitText: %
Emax: 75
--
compound: CC(=O)OC1C=C(c2ccccc2F)c2cc(Cl)ccc2NC1=S (stereo unspecified)
unitText: %
Emax: 92
--
compound: CSc1ccc2c(c1)C(c1ccccc1)=NCC(=S)N2
unitText: %
Emax: 71

---

Catalogue of compounds with associated Emax
Target: Muscarinic acetylcholine receptor M1 (Homo sapiens) (UniProt P11229)
Sequence (whole entry): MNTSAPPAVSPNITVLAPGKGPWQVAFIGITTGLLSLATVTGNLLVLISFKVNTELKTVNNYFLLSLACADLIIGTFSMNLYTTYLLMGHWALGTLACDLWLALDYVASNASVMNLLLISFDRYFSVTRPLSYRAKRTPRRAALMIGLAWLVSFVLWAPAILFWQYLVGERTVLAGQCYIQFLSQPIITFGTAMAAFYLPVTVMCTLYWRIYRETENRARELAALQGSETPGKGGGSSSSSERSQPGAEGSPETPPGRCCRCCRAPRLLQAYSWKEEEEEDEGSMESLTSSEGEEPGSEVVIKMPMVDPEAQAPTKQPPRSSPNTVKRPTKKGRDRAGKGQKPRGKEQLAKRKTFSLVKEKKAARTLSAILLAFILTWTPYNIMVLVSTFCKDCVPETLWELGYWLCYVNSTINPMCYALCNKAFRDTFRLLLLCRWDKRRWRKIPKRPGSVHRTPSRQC
Test: Positive allosteric modulation of human wild type M1 receptor assessed as increase in acetylcholine-induced calcium flux by FLIPR assay relative to acetylcholine
Assay type: functional

compound: CC(C)[C@@H]1N=C(c2ccccc2)c2cc(OC(F)(F)F)ccc2NC1=S
Emax: 127%
//
compound: CC(C)[C@@H]1N=C(c2ccccn2)c2cc(Cl)ccc2NC1=S
Emax: 103%
//
compound: CC(C)[C@H]1N=C(c2ccccc2)c2cc(Cl)ccc2NC1=S
Emax: 86%
//
compound: CCC[C@@H]1N=C(c2ccccc2)c2cc(Cl)ccc2NC1=S
Emax: 129%
//
compound: CC(C)[C@@H]1N=C(c2cccnc2)c2cc(Cl)ccc2NC1=S
Emax: 112%
//
compound: Fc1ccccc1C1=NCC(=S)Nc2ccc(Cl)cc21
Emax: 95%
//
compound: CCC1CN(c2ccccc2)c2cc(Cl)ccc2NC1=S (stereo unspecified)
Emax: 76%
//
compound: FC(F)(F)C[C@@H]1N=C(c2ccccc2)c2cc(Cl)ccc2NC1=S
Emax: 74%
//
compound: COc1ccc2c(c1)C(c1ccccc1)=N[C@@H](C(C)C)C(=S)N2
Emax: 105%
//
compound: CC(C)[C@@H]1N=C(c2ccccc2)c2cc(-c3ccccc3)ccc2NC1=S
Emax: 108%
//
compound: Fc1ccccc1C1=N[C@@H](c2ccccc2)C(=S)Nc2ccc(Cl)cc21
Emax: 75%
